The reported measurements were obtained from ChEMBL document CHEMBL1130457.

For reference, IC50 measured on UniProt P00734:
measured parameter: IC50 (nM)

• N=C(N)N1CCC[C@H](NC(=O)CN2CCC[C@H](NS(=O)(=O)Cc3ccccc3)C2=O)C1O (stereo not given in full) = 6.2
• Cn1cc(NS(=O)(=O)Cc2ccccc2)c(=O)n(CC(=O)N[C@H]2CCCN(C(=N)N)C2O)c1=O (stereo not given in full) = 141
• N=C(N)N1CCC[C@H](NC(=O)Cn2cccc(NS(=O)(=O)Cc3ccccc3)c2=O)C1O (stereo not given in full) = 0.505
• Cc1ccc(NS(=O)(=O)Cc2ccccc2)c(=O)n1CC(=O)N[C@H]1CCCN(C(=N)N)C1O (stereo not given in full) = 0.467
• Cc1ncc(NS(=O)(=O)Cc2ccccc2)c(=O)n1CC(=O)N[C@H]1CCCN(C(=N)N)C1O (stereo not given in full) = 2.32

---

Biological target: Tissue-type plasminogen activator (Homo sapiens, UniProt P00750)
Sequence (P00750 whole entry): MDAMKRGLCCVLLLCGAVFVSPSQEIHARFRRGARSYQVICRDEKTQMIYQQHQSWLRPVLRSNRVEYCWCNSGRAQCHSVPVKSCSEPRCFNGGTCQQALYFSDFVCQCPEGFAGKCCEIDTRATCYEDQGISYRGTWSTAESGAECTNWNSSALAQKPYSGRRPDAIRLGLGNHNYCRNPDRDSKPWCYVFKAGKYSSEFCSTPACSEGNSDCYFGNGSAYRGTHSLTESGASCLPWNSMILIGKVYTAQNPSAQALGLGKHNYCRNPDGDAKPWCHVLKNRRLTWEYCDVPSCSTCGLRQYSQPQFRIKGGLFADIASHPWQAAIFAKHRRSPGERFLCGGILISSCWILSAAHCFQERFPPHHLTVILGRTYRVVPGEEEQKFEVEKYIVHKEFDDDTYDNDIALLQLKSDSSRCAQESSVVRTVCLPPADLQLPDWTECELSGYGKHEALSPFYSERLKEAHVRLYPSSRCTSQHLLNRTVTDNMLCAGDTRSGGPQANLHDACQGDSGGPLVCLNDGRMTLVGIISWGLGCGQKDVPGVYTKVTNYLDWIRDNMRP
measured parameter: IC50

- Cc1ncc(NS(=O)(=O)Cc2ccccc2)c(=O)n1CC(=O)N[C@H]1CCCN(C(=N)N)C1O (some centres undefined): > 2500 nM
- N=C(N)N1CCC[C@H](NC(=O)Cn2cccc(NS(=O)(=O)Cc3ccccc3)c2=O)C1O (some centres undefined): > 2500 nM
- N=C(N)N1CCC[C@H](NC(=O)CN2CCC[C@H](NS(=O)(=O)Cc3ccccc3)C2=O)C1O (some centres undefined): > 2500 nM
- Cc1ccc(NS(=O)(=O)Cc2ccccc2)c(=O)n1CC(=O)N[C@H]1CCCN(C(=N)N)C1O (some centres undefined): > 2500 nM

---

Biological target: Coagulation factor X (Homo sapiens)
Sequence (P00742 41-179 limits assumed): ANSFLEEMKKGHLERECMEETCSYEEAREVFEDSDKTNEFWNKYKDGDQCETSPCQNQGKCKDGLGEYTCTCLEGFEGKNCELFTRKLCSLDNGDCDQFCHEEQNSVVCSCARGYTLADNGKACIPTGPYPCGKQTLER
Sequence (P00742 235-488 limits assumed): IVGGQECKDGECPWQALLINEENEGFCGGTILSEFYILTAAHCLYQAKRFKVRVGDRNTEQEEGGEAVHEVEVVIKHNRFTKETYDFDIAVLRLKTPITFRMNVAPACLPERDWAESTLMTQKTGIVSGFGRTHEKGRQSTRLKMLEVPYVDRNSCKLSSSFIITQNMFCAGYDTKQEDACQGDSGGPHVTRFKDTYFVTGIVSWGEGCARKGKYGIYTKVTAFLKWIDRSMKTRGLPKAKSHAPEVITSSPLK
measured parameter: IC50 (nM)

• Cc1ncc(NS(=O)(=O)Cc2ccccc2)c(=O)n1CC(=O)N[C@H]1CCCN(C(=N)N)C1O (some centres undefined) = 905
• N=C(N)N1CCC[C@H](NC(=O)CN2CCC[C@H](NS(=O)(=O)Cc3ccccc3)C2=O)C1O (some centres undefined) = 2500
• Cn1cc(NS(=O)(=O)Cc2ccccc2)c(=O)n(CC(=O)N[C@H]2CCCN(C(=N)N)C2O)c1=O (some centres undefined) = 2500
• Cc1ccc(NS(=O)(=O)Cc2ccccc2)c(=O)n1CC(=O)N[C@H]1CCCN(C(=N)N)C1O (some centres undefined) = 447

---

pIC50: −log10 of the molar value.
For reference, pIC50 measured on Serine protease 1 (Homo sapiens, UniProt P07477):
measured parameter: pIC50

* N=C(N)N1CCC[C@H](NC(=O)CN2CCC[C@H](NS(=O)(=O)Cc3ccccc3)C2=O)C1O (stereo not given in full) | 6.10
* Cn1cc(NS(=O)(=O)Cc2ccccc2)c(=O)n(CC(=O)N[C@H]2CCCN(C(=N)N)C2O)c1=O (stereo not given in full) | 6.40
* Cc1ncc(NS(=O)(=O)Cc2ccccc2)c(=O)n1CC(=O)N[C@H]1CCCN(C(=N)N)C1O (stereo not given in full) | 6.80
* N=C(N)N1CCC[C@H](NC(=O)Cn2cccc(NS(=O)(=O)Cc3ccccc3)c2=O)C1O (stereo not given in full) | 7.58
* Cc1ccc(NS(=O)(=O)Cc2ccccc2)c(=O)n1CC(=O)N[C@H]1CCCN(C(=N)N)C1O (stereo not given in full) | 7.96

---

pIC50: −log10 of the molar value.
For reference, pIC50 measured on Plasminogen (Homo sapiens, UniProt P00747):
measured parameter: pIC50

• Cc1ccc(NS(=O)(=O)Cc2ccccc2)c(=O)n1CC(=O)N[C@H]1CCCN(C(=N)N)C1O (stereo partly drawn) = < 5.60
• Cc1ncc(NS(=O)(=O)Cc2ccccc2)c(=O)n1CC(=O)N[C@H]1CCCN(C(=N)N)C1O (stereo partly drawn) = < 5.60
• N=C(N)N1CCC[C@H](NC(=O)CN2CCC[C@H](NS(=O)(=O)Cc3ccccc3)C2=O)C1O (stereo partly drawn) = < 5.60
